# System: Candida albicans
# protocol: Activity against vaginal candidosis in rats (lowest oral dose active at the 14th day after infection)
# Type: in vivo, Female Wistar rats
# experimental_parameters: Table I; oral once a day for two days; active at 14th day after infection
property_measured: lowest effective oral dose (vaginal candidosis in rats)
Answers are plain numbers.

Worked cases, lowest effective oral dose (vaginal candidosis in rats) given:
O=C(Nc1ccc(OC[C@H]2CO[C@](Cn3ccnc3)(c3ccc(Cl)cc3Cl)O2)cc1)Oc1ccccc1 (relative stereo)
10
COC(=O)Nc1ccc(OC[C@H]2CO[C@](Cn3ccnc3)(c3ccc(Cl)cc3Cl)O2)cc1 (relative stereo)
5

Dear colleague, could you send me lowest effective oral dose (vaginal candidosis in rats) for each of the items below? Thanks.
1. Clc1ccc([C@@]2(Cn3ccnc3)OC[C@H](COc3ccc(N4CCNCC4)cc3)O2)c(Cl)c1 (relative stereo)
2. Clc1ccc([C@@]2(Cn3ccnc3)OC[C@H](COc3ccc(N4CCN(Cc5ccccc5)CC4)cc3)O2)c(Cl)c1 (relative stereo) [drawing 50]
3. NC(=O)CN1CCN(c2ccc(OC[C@H]3CO[C@](Cn4ccnc4)(c4ccc(Cl)cc4Cl)O3)cc2)CC1 (relative stereo)

1. 5
2. 1.25
3. 1.25

Dear colleague, could you send me lowest effective oral dose (vaginal candidosis in rats) for each of the items below? Thanks.
1. CCNc1ccc(OC[C@H]2CO[C@](Cn3ccnc3)(c3ccc(Cl)cc3Cl)O2)cc1 (relative stereo)
2. CN(C)c1ccc(OC[C@H]2CO[C@](Cn3ccnc3)(c3ccc(Cl)cc3Cl)O2)cc1 (relative stereo)
3. CCC(=O)Nc1ccc(OC[C@H]2CO[C@](Cn3ccnc3)(c3ccc(Cl)cc3Cl)O2)cc1 (relative stereo)
4. S=C=Nc1ccc(OC[C@H]2CO[C@](Cn3ccnc3)(c3ccc(Cl)cc3Cl)O2)cc1 (relative stereo)

1. 2.5
2. 10
3. 10
4. 5

Dear colleague, could you send me lowest effective oral dose (vaginal candidosis in rats) for each of the items below? Thanks.
1. Clc1ccc([C@@]2(Cn3ccnc3)OC[C@H](COc3ccc(N4CCOCC4)cc3)O2)c(Cl)c1 (relative stereo)
2. O=C(Nc1ccc(OC[C@H]2CO[C@](Cn3ccnc3)(c3ccc(Cl)cc3Cl)O2)cc1)c1ccccc1 (relative stereo)
3. CCNC(=O)N1CCN(c2ccc(OC[C@H]3CO[C@](Cn4ccnc4)(c4ccc(Cl)cc4Cl)O3)cc2)CC1 (relative stereo)

1. 2.5
2. 5
3. 10

Can you look up the measured lowest effective oral dose (vaginal candidosis in rats) of O=C(Nc1ccc(OC[C@H]2CO[C@](Cn3ccnc3)(c3ccc(Cl)cc3Cl)O2)cc1)C(Cl)Cl (relative stereo) for me?
10

====

Exercise: for every item that follows, state its recorded lowest effective oral dose (vaginal candidosis in rats).
# Tested on: Candida albicans
# protocol: Activity against vaginal candidosis in rats (lowest oral dose active at the 14th day after infection)
# Format: in vivo, Female Wistar rats
# Set-up: unit not given here
# experimental_parameters: Table I; oral once a day for two days; active at 14th day after infection
Numbers only.

CNC(=S)Nc1ccc(OC[C@H]2CO[C@](Cn3ccnc3)(c3ccc(Cl)cc3Cl)O2)cc1 (relative stereo)
10

Dear colleague, could you send me lowest effective oral dose (vaginal candidosis in rats) for each of the items below? Thanks.
1. NC(=O)N1CCN(c2ccc(OC[C@H]3CO[C@](Cn4ccnc4)(c4ccc(Cl)cc4Cl)O3)cc2)CC1 (relative stereo)
2. CNC(=S)N1CCN(c2ccc(OC[C@H]3CO[C@](Cn4ccnc4)(c4ccc(Cl)cc4Cl)O3)cc2)CC1 (relative stereo)

5
2.5
